- Tested on: SK-OV-3 ovarian
- protocolDescription: NCI-60 one-dose screen, 48 h
- assayContext: 100 µM
About 83,000 compounds went through this panel and 20% of them were active in at least one assay; those are over-represented in the sample as a whole. Active and inactive are the calls of the source. Rule for the calls: active = growth percent below 10; inactive = the rest.
Labels: yes (1) = active, no (0) = inactive

>>> cat("CCN(Cc1ccccc1)c1ccc(/C=C2\\COc3ccccc3C2=O)cc1")
"no (0)"
>>> cat("O=C(/C=C/c1cccc(Oc2ccc(Cl)cc2)c1)c1ccccc1")
"yes (1)"
>>> cat("COc1ccc(C(=O)/C=C/c2ccc(OCc3ccc(Cl)cc3)cc2)cc1OC")
"yes (1)"
>>> cat("CC(=O)/C=C/c1ccc(N(C)Cc2ccc(C(C)(C)C)cc2)cc1")
"yes (1)"
>>> cat("COc1ccc(C(=O)/C=C/c2ccc(OCc3cccc(C(F)(F)F)c3)c(OC)c2)cc1OC")
"no (0)"

====

- System: SK-MEL-5 melanoma
- protocolDescription: NCI-60 one-dose screen, 48 h
- assayContext: 10 µM unless noted
This is part of a sample that, as a whole, favours compounds with a hit. Of some 83,000 tested, about 20% had one in any assay. Active and inactive are the calls of the source. The calls were made as follows: active = growth percent below 10; inactive = the rest.
Classes used: active, inactive

>>> cat("COc1ccc(/C(C)=C(\\c2ccc(OCCN3CCOCC3)cc2)c2ccc(OC(=O)C3CCCCC3)cc2)cc1")
"inactive"
>>> cat("CN1CCN(C(=O)OCc2nc3c(N4CCOCC4)nc(Cl)nc3n2C)CC1")
"active"
>>> cat("C=C(C)[C@@H]1CC[C@]2(C(=O)N3CCN(C)CC3)CC[C@]3(C)[C@H](CC[C@@H]4[C@@]5(C)CC(CCCNC(C)=O)(CCCNC(C)=O)[C@H](OC(C)=O)C(C)(C)[C@@H]5CC[C@]43C)[C@@H]12")
"inactive"
>>> cat("O=C1OCC2=C1C(c1cccc([N+](=O)[O-])c1)c1cc3c(cc1N2CCO)CCC3 (stereo not drawn)")
"active"
>>> cat("CCCNNC(=O)/C=C/c1ccc(CNCCc2c(C)[nH]c3ccccc23)cc1")
"active"
>>> cat("O=C(c1cccc(Br)c1)N1CCN(c2ccnc3cc(Cl)ccc23)CC1")
"inactive"
>>> cat("CCOC(=O)c1cnn(CC(O)CC)c1NC(=O)NCc1ccccc1C(F)(F)F (stereo not drawn)")
"inactive"
>>> cat("Cn1cc(-c2nc3c(F)cc4[nH]ncc4c3c3c2CCCC3)c(C(F)F)n1")
"inactive"
>>> cat("CCc1c2c(nc3ccc(OCc4ccc(B5OC(C)(C)C(C)(C)O5)cc4)cc13)-c1cc3c(c(=O)n1C2)COC(=O)[C@]3(O)CC")
"active"
>>> cat("CC(=O)c1c(C)nc(SCC(=O)Nc2ccc(Cl)cc2)n1-c1ccc(Cl)cc1")
"inactive"
>>> cat("COc1ccc(-c2csc(NC(=O)CN3CCN(CCO)CC3)n2)cc1NS(=O)(=O)c1cccc2c(N(C)C)cccc12")
"inactive"
>>> cat("CC1=CC=C(NC(=O)/C=C/c2ccccc2)CC1Nc1nccc(-c2cccnc2)n1 (stereo not drawn)")
"active"
>>> cat("O=C(/C=C/c1ccc(F)cc1)Nc1ncc(Cc2ccc(F)cc2)s1")
"active"
>>> cat("CCNC(=O)Oc1ccc(/C(=C(/C)Cc2ccc(OC)cc2)c2ccc(OCCN(CC)CC)cc2)cc1")
"active"
>>> cat("COc1cc(-c2nc(SCCC(C)C)nc(Nc3ccc(F)cc3)c2C#N)cc(OC)c1OC")
"inactive"
>>> cat("COc1ccc(S(=O)(=O)Nc2cc(Sc3cccc4cccnc34)c(O)c3ccccc23)cc1")
"active"
>>> cat("CCCCSc1ccc2nc(-c3ccc(OCCCN=C(N)N)cc3)cn2c1")
"inactive"
>>> cat("C=C1C(=O)O[C@@H]2[C@H]3[C@H](COC(C)=O)[C@@H](OC(C)=O)C[C@H]3C(=C)[C@@H](O)C[C@@H]12")
"inactive"

====

Listing of recorded growth by entry.
- Test system: NCI-H226 lung
- protocolDescription: NCI-60 one-dose screen, 48 h (100 = growth as untreated, 0 = no growth, -100 = all killed)
- assayContext: 10 µM unless noted
This is part of a sample that, as a whole, favours compounds with a hit. Of some 83,000 tested, about 20% had one in any assay.
measurementType: growth (%)

>>> observedvalue("CCCCCCNC(=O)Oc1ccc(/C(=C(/CC)Cc2ccccc2)c2ccc(OCCCN(C)C)cc2)cc1")
95.5
>>> observedvalue("NC1=CC(=O)c2cccnc2C1=O")
59.2
>>> observedvalue("COc1cc(NC2CCCCC2O)c2nc(-c3ccc(Cl)cc3)ccc2c1 (stereo not given)")
90
>>> observedvalue("O=C1OCC2=C1C(c1cccc(C(F)(F)F)c1)c1cc3c(cc1N2CCO)CCC3 (stereo not given)")
40.2
>>> observedvalue("Clc1ccc(CNc2ccc3nc(CCC4CCCCC4)[nH]c3c2)cc1")
71.4
>>> observedvalue("CCN(CC)CCCN1C(=O)c2c(c(C)c3c(oc4cc(OC)ccc43)c2C)C1=O")
-5.51
>>> observedvalue("CCOc1ccccc1NC(=O)c1cc2ccccc2cc1O")
71.8
>>> observedvalue("CNC(=O)c1cc(Oc2ccc3nc(NC(=O)Nc4ccc(C(F)(F)F)cc4)sc3c2)ccn1")
85.6
>>> observedvalue("COc1ccc(-c2cc(-c3cc(OC)c(OC)c(OC)c3)c(C#N)c(=O)n2CCCCC(=O)O)cc1")
104
>>> observedvalue("Cc1ccc(C(=O)N(CCCN)[C@@H](c2nc3cc(Cl)ccc3c(=O)n2Cc2ccccc2)C(C)C)cc1")
22.6

====

- Test system: HS 578T breast
- protocolDescription: NCI-60 one-dose screen, 48 h (100 = growth as untreated, 0 = no growth, -100 = all killed)
- assayContext: 10 µM unless noted
This is part of a sample that, as a whole, favours compounds with a hit. Of some 83,000 tested, about 20% had one in any assay.
Each entry below carries its recorded growth.
measurementType: growth (%)

>>> observedvalue("O=C1Nc2ccccc2/C1=C/c1cccn1CCCCCn1c2ccccc2c(=O)c2ccccc21")
90.5
>>> observedvalue("C=C1C(=O)O[C@@H]2[C@H]3[C@H](COC(C)=O)[C@@H](OC(C)=O)C[C@H]3C(=C)[C@@H](O)C[C@@H]12")
92.4
>>> observedvalue("O=C(NCCCN1CCCCC1)c1ccc(-c2nc3ccc4[nH]ncc4c3c3c2CCCC3)cc1")
14.4
>>> observedvalue("O=C(/C=C/C12c3ccccc3C(c3ccccc31)C1C(=O)NC(=O)C12)c1ccncc1 (stereo not given)")
38
>>> observedvalue("Cc1c(C(C)(C)O)cn2ncnc(Oc3ccc(NC(=O)Nc4ccc(Cl)c(C(F)(F)F)c4)cc3)c12")
49.4
>>> observedvalue("O=C(CCCOc1ccc(Br)cc1)Nc1ncc(Cc2ccc(F)cc2)s1")
74.3
>>> observedvalue("CC(C)(C)CC(N)=O")
106
>>> observedvalue("Cc1ccc(-c2nc3nc(-c4ccc(F)cc4)nc(N4CCCNCC4)c3o2)cc1")
-75.9
>>> observedvalue("COc1cc(CO)cc2cc3ccccc3nc12")
108
>>> observedvalue("COC(=O)c1c2c(c(C)[n+]([O-])c1C)C(=O)C(NCCN1CCOCC1)=CC2=O")
101
>>> observedvalue("C/C=C(/C)C(=O)O[C@@H]1CC(C)(C)CC2C34OC(=O)[C@@]21CC[C@@]3(C)[C@]1(C)CCC2C(C)(C)C(=O)CC[C@]2(C)C1C[C@@H]4Cl (stereo not given in full)")
99.8
>>> observedvalue("COc1ccc(/C=C/C(=O)c2cc3c(N)c(C(=O)Nc4ccccc4)sc3nc2C)cc1")
14.6
>>> observedvalue("Clc1ccc(Nc2nc(Nc3ccc(Cl)cc3)nc(Nc3ccc(-c4cc(-c5cccc(Cl)c5)on4)cc3)n2)cc1")
105
>>> observedvalue("Cc1ccc(-c2nc(C#N)c(S(=O)(=O)N(C)C)o2)cc1")
105
>>> observedvalue("COCCn1cc(-c2csc(-c3cn(C)c4ccc(F)cc34)n2)c2cccnc21")
63.1
>>> observedvalue("Cc1ccc(-c2nc(SCC(=O)c3ccc(C#N)cc3)[nH]c(=O)c2C#N)cc1")
113
>>> observedvalue("CCCCCCCCCCCCCCCCCCn1cc(COc2ccc(C=O)cc2)nn1")
110
>>> observedvalue("COc1ccc(/C=C(\\C#N)c2cc3ccccc3[nH]2)cc1")
22.9
>>> observedvalue("COc1ccc2c(c1)CCNC21C(=O)Nc2c(Br)cc(Br)cc21 (stereo not given)")
94.8
>>> observedvalue("N=C(N)SCc1c2ccccc2c(CSC(=N)N)c2ccccc12")
85.5

====

- System: NCI-H322M lung
- protocolDescription: NCI-60 one-dose screen, 48 h (100 = growth as untreated, 0 = no growth, -100 = all killed)
- assayContext: 10 µM unless noted
Compounds without any hit were thinned out: in the full panel of roughly 83,000, 20% have a hit.
measurementType: growth (%)

>>> observedvalue("COc1cc(Nc2nc3ccccc3cc2C(=O)Nc2ccc(F)c(F)c2)cc(OC)c1OC")
53
>>> observedvalue("COc1cc(C=O)ccc1Oc1ccc([N+](=O)[O-])cc1[N+](=O)[O-]")
104
>>> observedvalue("O=C1/C(=C/c2ccc(-c3ccccc3C(F)(F)F)o2)SC(=S)N1CCc1ccc(O)cc1")
75.6
>>> observedvalue("CCOC(=O)c1cnn(CC(O)CC)c1NC(=O)NCc1ccccc1C(F)(F)F (centres undefined)")
94.5
>>> observedvalue("[2H]C([2H])([2H])Oc1cccc(/C=C/C(=O)/C=C(/C=C/c2cccc(OC([2H])([2H])[2H])c2OC([2H])([2H])[2H])OB(F)F)c1OC([2H])([2H])[2H]")
106
>>> observedvalue("C=C1C(=O)O[C@H]2[C@H]1CC/C(CNS(=O)(=O)c1ccc3ccccc3c1)=C\\CC[C@@]1(C)O[C@@H]21")
92.1
>>> observedvalue("O=C(CN1C(=O)S/C(=C\\C(Cl)=C\\c2ccccc2)C1=O)NCCCn1ccnc1")
90.8
>>> observedvalue("COC(=O)c1nc(-c2ccccc2)oc1S(=O)(=O)N(C)CCO")
94.6
>>> observedvalue("O=C(N=Nc1c(O)[nH]c2ccccc12)Nc1ccc(Br)cc1")
70.9

Every entry's value here was drawn from PubChem BioAssay (NCI).
